Ref: patent US4971967A

Experiment: Acute toxicity (LD50) (Experiment 6)
Details: mouse, in vivo; oral, mice fasted 18 hours, observed for a week
quantity-measured: LD50 at 168 h (mg/kg)
The figure you give is taken to be in mg/kg; do not add the unit.

[
  {
    "compound": "CC1CN(c2c(F)cc3c(=O)c(C(=O)O)c4scc5n4c3c2N(C)C5)CCN1C (centres unmarked) [Compound (O)]",
    "measurement-unit": "mg/kg",
    "recorded-result": 1410
  }
]

The record that follows has no LD50 at 168 h shown yet.
Query: Quickly give me recorded LD50 at 168 h for CC1CN(c2c(F)cc3c(=O)c(C(=O)O)c4scc5n4c3c2N(C)C5)CC(C)N1C (centres unmarked) [Compound (P)]
Result: 1070
